Below, each entry is listed alongside its reported pEC50.
molecular target: Kappa-type opioid receptor (Homo sapiens); experiment: Inhibition of kappa opioid receptor (unknown origin) by [35S]-GTPgammaS binding assay; type: functional
Sequence (P41145 whole entry): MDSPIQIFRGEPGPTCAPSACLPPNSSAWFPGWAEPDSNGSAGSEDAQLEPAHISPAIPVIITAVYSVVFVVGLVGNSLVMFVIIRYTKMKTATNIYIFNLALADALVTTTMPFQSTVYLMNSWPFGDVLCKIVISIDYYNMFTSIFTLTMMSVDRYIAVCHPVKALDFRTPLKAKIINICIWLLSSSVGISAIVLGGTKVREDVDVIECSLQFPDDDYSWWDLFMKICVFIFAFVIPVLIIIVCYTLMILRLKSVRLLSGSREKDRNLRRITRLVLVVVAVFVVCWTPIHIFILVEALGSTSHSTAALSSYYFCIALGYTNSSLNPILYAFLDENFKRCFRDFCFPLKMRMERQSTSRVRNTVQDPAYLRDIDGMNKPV
pEC50: −log10 of the molar value.
recorded-endpoint: pEC50

| smiles-record | recorded-endpoint | test-value |
| --- | --- | --- |
| Ic1ccc(CSc2nnc(-c3ccccn3)n2Cc2ccccn2)cc1 | pEC50 | 7.12 |
| Oc1cccc(CCN(CCc2ccccc2)CC2CC2)c1 | pEC50 | 7.44 |

---

biological target: Kappa-type opioid receptor (Homo sapiens); test: Agonist activity at kappa opioid receptor (unknown origin) assessed as reduction in beta arrestin recruitment; type: functional
pEC50: −log10 of the molar value.

| compound | assayed-target | pEC50 |
| --- | --- | --- |
| CCC1CC2CC3c4[nH]c5ccc(O)cc5c4CCN(C2)C13 (stereo unspecified) | Kappa-type opioid receptor (Homo sapiens) | 6.96 |

Source of measurements: ChEMBL document CHEMBL4406853
